- System: Digitaria sanguinalis
- MEASUREMENT NOTES: Post-emergence foliage spray, pot culture, fresh weight inhibition (Tables 151-206; 20 days)
- Format: in vivo
- RUN PARAMETERS: Digitaria sanguinalis, 480 h; A alone 150 g a.i./ha; 20 days after treatment; read-out: Control effect (%) of A applied alone in corresponding dose
MEASUREMENT TYPE: pest or weed control at 150 g/ha (%)
Lab book: enter the figure in %, no units written.

Request: Any idea what pest or weed control at 150 g/ha was measured for CC(C)=NOC(=O)[C@@H](C)Oc1nc(F)c(Cl)c(N)c1Cl ?
Result: 36.8

Request: Same for Cc1c(F)c(F)c(COC(=O)[C@@H](C)Oc2nc(F)c(Cl)c(N)c2Cl)c(F)c1F
Result: 31.2

Request: Then C[C@@H](Oc1nc(F)c(Cl)c(N)c1Cl)C(=O)OCC1CCCO1 (stereo partly shown) ?
Result: 51.6

Request: Item: CCCCOCCOC(=O)[C@@H](C)Oc1nc(F)c(Cl)c(N)c1Cl
Result: 44.6
